# assayed_target: full length recombinant Pim-3 (Homo sapiens (Human))
# test_summary: Pim enzyme assay (HTRF, phosphorylation of biotinylated-BAD (S112) peptide), Pim-3
# Assay type: biochemical
# conditions_used: Pim-3 enzyme assay; read-out: Pim3 IC50
assay_readout: IC50 (nM)

Nc1nnc(-c2ccc3[nH]cc(-c4cncc(-c5cccc(Cl)c5)n4)c3c2)o1: 4.23

a: CC(C)Oc1cncc(-c2c[nH]c3ccc(-c4nnc(N)o4)cc23)n1
b: Nc1nnc(-c2ccc3[nH]cc(-c4cccc(O)n4)c3c2)s1
Sort a and b by IC50 descending and give the first. Label of pick, please. b
(b: 918 nM, a: 2.47 nM)

----------
# assayed_target: full length recombinant Pim-3 (Homo sapiens (Human))
# test_summary: Pim enzyme assay (HTRF, phosphorylation of biotinylated-BAD (S112) peptide), Pim-3
# Format: biochemical
# conditions_used: read-out: Pim3 IC50
assay_readout: IC50 (nM)
Express it in nM; write the number only.

c1cc(-c2nnc(-c3ccc4[nH]cc(-c5cncc(C6CC6)n5)c4c3)o2)[nH]n1 [Example 39, 2,2,2-trifluoroacetate]: 19.8

Fill blank: measured IC50 of the compound Nc1nnc(-c2ccc3[nH]cc(-c4cncc(NC5CCCC5)n4)c3c2)s1 [Example 17, 2,2,2-trifluoroacetate] is ____. 0.763

For the compound shown here, CC(C)Oc1cccc(-c2c[nH]c3ccc(-c4nnc(NC5CCCNC5)s4)cc23)n1 (stereo not shown) [Example 32, 2,2,2-trifluoroacetate] , give the reported IC50. 3.46

Recorded IC50 of CC(C)(Nc1nnc(-c2ccc3[nH]cc(-c4cncc(C5CC5)n4)c3c2)o1)c1ccccc1 , please. 14.4

----------
# assayed_target: full length recombinant Pim-2 (Homo sapiens (Human), UniProt Q9P1W9)
# Sequence (Q9P1W9 whole entry): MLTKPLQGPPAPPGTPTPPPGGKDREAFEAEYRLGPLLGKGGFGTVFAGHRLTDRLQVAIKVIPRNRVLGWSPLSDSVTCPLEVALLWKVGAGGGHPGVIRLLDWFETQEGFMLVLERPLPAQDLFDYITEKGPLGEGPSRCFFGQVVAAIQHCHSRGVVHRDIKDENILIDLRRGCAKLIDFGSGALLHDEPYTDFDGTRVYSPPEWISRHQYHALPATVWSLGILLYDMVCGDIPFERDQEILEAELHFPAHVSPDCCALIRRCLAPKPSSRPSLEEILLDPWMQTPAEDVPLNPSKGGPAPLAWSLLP
# test_summary: Pim enzyme assay (HTRF, phosphorylation of biotinylated-BAD (S112) peptide), Pim-2
# Format: biochemical
# conditions_used: Pim-2 enzyme assay; read-out: Pim2_IC50
assay_readout: IC50 (nM)

Please review the entries below; each comes with its answer.
Cc1ccnc(-c2c[nH]c3ccc(-c4nnc(NC(C)(C)C)o4)cc23)n1: 34.8
Nc1nnc(-c2ccc3[nH]cc(-c4cccc(N5CCOCC5)n4)c3c2)o1: 20.8
Nc1nnc(-c2ccc3[nH]cc(-c4cccc(C(F)(F)F)n4)c3c2)s1: 135
CC(C)(C)Nc1nnc(-c2ccc3[nH]cc(-c4nccc(C(N)=O)n4)c3c2)o1: 28.5
CC(C)Oc1cncc(-c2c[nH]c3ccc(-c4noc(N)n4)cc23)n1: 538

a: CC(C)Oc1cccc(-c2c[nH]c3ccc(-c4nnc(N)o4)cc23)n1
b: N#Cc1cccc(-c2c[nH]c3ccc(-c4nnc(N)s4)cc23)n1
Given the listed items, does a or b have the lesser reported IC50? Field: selected label. Fill in the label of the entry you choose. a
(a: 5.46 nM, b: 174 nM)

I: c1cc(C2CC2)nc(-c2c[nH]c3ccc(-c4nnc(C5CC5)o4)cc23)n1
II: CN(C)c1cncc(-c2c[nH]c3ccc(-c4nnc(N)s4)cc23)n1
III: Nc1cccc(-c2c[nH]c3ccc(-c4nnc(N)s4)cc23)n1
IV: Nc1nnc(-c2ccc3[nH]cc(-c4nccc(OCC(F)(F)F)n4)c3c2)o1
V: CC(C)Oc1cccc(-c2c[nH]c3ccc(-c4nnco4)cc23)n1
I would appreciate it if you could sort these 5 compounds by IC50, starting from the smallest number. Return value: ordered labels per request. IV, I, II, V, III
(IV: 2.38 nM, I: 4.32 nM, II: 28.2 nM, V: 85.4 nM, III: 977 nM)

----------
# assayed_target: full length recombinant Pim-2 (Homo sapiens (Human))
# test_summary: Pim enzyme assay (HTRF, phosphorylation of biotinylated-BAD (S112) peptide), Pim-2
# Type: biochemical
# conditions_used: Pim-2 enzyme assay; read-out: Pim2_IC50
assay_readout: IC50 (nM)

Previously resolved entries follow.
C[C@H]1CCCN(c2ccnc(-c3c[nH]c4ccc(-c5nnc(N)o5)cc34)n2)C1 (stereo in doubt): 4.81
C[C@@H]1CCCN(c2cccc(-c3c[nH]c4ccc(-c5nnc(N)s5)cc34)n2)C1 (stereo in doubt): 159

a: CC[C@@H]1COCCN1c1nnc(-c2ccc3[nH]cc(-c4cncc(C5CC5)n4)c3c2)o1 (stereo in doubt)
b: Nc1nnc(-c2ccc3[nH]cc(-c4cncc(-c5ccccc5F)n4)c3c2)o1
Higher IC50 between a and b ? Respond using the label that marks the chosen record. a
(a: 29.8 nM, b: 19.6 nM)

I: CNc1nnc(-c2ccc3[nH]cc(-c4ccn[nH]4)c3c2)s1
II: CC(C)Oc1cccc(-c2c[nH]c3ccc(-c4nnc(N)o4)nc23)c1
III: Nc1nnc(-c2ccc3[nH]cc(-c4ccc5nccnc5c4)c3c2)s1
IV: CC(C)Oc1cccc(-c2c[nH]c3ccc(-c4nnc(N)s4)cc23)n1
V: CNc1nnc(-c2ccc3[nH]cc(-c4ccncc4)c3c2)s1
Rank entries according to their IC50, from the largest number down. List the labels in the requested order. I, V, II, III, IV

a: Nc1nnc(-c2ccc3[nH]cc(-c4cnc(N5CCCC5=O)cn4)c3c2)s1
b: Nc1nnc(-c2ccc3[nH]cc(-c4cccc(NCC5CC5)n4)c3c2)s1
c: CCOc1cnc(-c2c[nH]c3ccc(-c4nnc(N)o4)cc23)cn1
d: CNc1nnc(-c2ccc3[nH]cc(-c4ccccc4)c3c2)s1
e: Nc1nnc(-c2ccc3[nH]cc(-c4cncc(-c5ccc(Cl)cc5)n4)c3c2)o1
Hello, I need these entries ordered by IC50, highest reading first. Thanks! The response must list the labels following the requested ordering. d, a, c, b, e
(d: 1950 nM, a: 1040 nM, c: 324 nM, b: 145 nM, e: 25.1 nM)

----------
# assayed_target: full length recombinant Pim-1 (Homo sapiens (Human), UniProt P11309)
# Sequence (P11309 whole entry): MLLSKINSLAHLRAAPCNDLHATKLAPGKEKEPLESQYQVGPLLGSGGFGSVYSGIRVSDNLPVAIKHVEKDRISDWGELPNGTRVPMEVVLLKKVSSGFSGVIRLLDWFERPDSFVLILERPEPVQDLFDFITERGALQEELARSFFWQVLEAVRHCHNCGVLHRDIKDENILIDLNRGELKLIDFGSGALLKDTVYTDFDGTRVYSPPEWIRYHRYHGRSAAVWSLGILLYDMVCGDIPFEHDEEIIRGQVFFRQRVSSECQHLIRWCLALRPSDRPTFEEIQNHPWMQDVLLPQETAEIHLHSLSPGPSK
# test_summary: Pim enzyme assay (HTRF, phosphorylation of biotinylated-BAD (S112) peptide), Pim-1
# Assay type: biochemical
# conditions_used: HTRF, 10-point curve, high dose 1 uM, 2 h at RT; read-out: Pim_1_IC50
assay_readout: IC50 (nM)

CC(C)Nc1nnc(-c2ccc3[nH]cc(-c4cc(=O)[nH]c(C5CC5)n4)c3c2)o1 [Example 300]: 1.2

P: CC(C)Nc1nnc(-c2ccc3[nH]cc(-c4nc(C(=O)NC5CC5)cs4)c3c2)o1 [Example 278]
Q: COc1nccc(-c2c[nH]c3ccc(-c4nnc(NC(C)C)o4)cc23)n1 [Example 297]
When P and Q are compared, which has the higher number for IC50? Reply briefly: the label of your chosen item. P

----------
# assayed_target: full length recombinant Pim-1 (Homo sapiens (Human))
# test_summary: Pim enzyme assay (HTRF, phosphorylation of biotinylated-BAD (S112) peptide), Pim-1
# Assay type: biochemical
# conditions_used: Pim-1 enzyme assay; read-out: Pim_1_IC50
pIC50: −log10 of the molar value.
assay_readout: pIC50

Please review the entries below; each comes with its answer.
Nc1nnc(-c2ccc3[nH]cc(-c4ccc5nccnc5c4)c3c2)s1 [Example 151]: 6.99
c1cc(-c2c[nH]c3ccc(-c4nncs4)cc23)nc(N2CCOCC2)c1 [Example 28]: 7.39
Nc1nnc(-c2ccc3[nH]cc(-c4cncc(-c5ccccc5Cl)n4)c3c2)o1 [Example 117]: 7.78
Nc1nnc(-c2ccc3[nH]cc(-c4nccc(Oc5ccccc5)n4)c3c2)o1 [Example 106]: 7.82
C[C@H]1CCCCN1c1nc(-c2c[nH]c3ccc(-c4nnc(N)s4)cc23)cs1 (stereo in doubt) [Example 184]: 6.79
Nc1nnc(-c2ccc3[nH]cc(-c4cncc(-c5ccccc5)n4)c3c2)o1 [Example 115]: 8.03

P: Nc1nnc(-c2ccc3[nH]cc(-c4cnc5ccccc5c4)c3c2)s1 [Example 21]
Q: CN1CCN(c2cccc(-c3c[nH]c4ccc(-c5nnc(N)o5)cc34)n2)CC1 [Example 75]
Given P and Q , report the one with the higher recorded pIC50. Your answer should be the label attached to the chosen record. Q
(Q: 8.42, P: 6.75)

----------
# assayed_target: full length recombinant Pim-1 (Homo sapiens (Human))
# test_summary: Pim enzyme assay (HTRF, phosphorylation of biotinylated-BAD (S112) peptide), Pim-1
# Type: biochemical
# conditions_used: Pim-1 enzyme assay; read-out: Pim_1_IC50
assay_readout: IC50 (nM)

// worked examples, IC50 included
CC(C)Nc1nnc(-c2ccc3[nH]cc(-c4nccc(N5CCN(C)C(=O)C5)n4)c3c2)o1: 45.9
Cn1cc(-c2cncc(-c3c[nH]c4ccc(-c5nnc(N)o5)cc34)n2)cn1: 19
Nc1nnc(-c2ccc3[nH]cc(-c4cnc(N5CCOCC5)cn4)c3c2)s1: 908

1: CC(C)Nc1nnc(-c2ccc3[nH]cc(-c4ncc(F)c(C5CC5)n4)c3c2)o1
2: CC(C)Nc1nnc(-c2ccc3[nH]cc(-c4nc(C5CC5)n[nH]4)c3c2)o1
3: CC(C)Cc1nnc(-c2ccc3[nH]cc(-c4nccc(C5CC5)n4)c3c2)o1
Reorder the items by IC50, least to greatest. Your task in answering is to list the labels in the requested order. 1, 3, 2

1: Nc1nnc(-c2ccc3[nH]cc(-c4cncc(N5CCC(F)(F)CC5)n4)c3c2)o1
2: Nc1nnc(-c2ccc3[nH]cc(-c4cncc(-c5cccc(Cl)c5)n4)c3c2)o1
Record comparison, field IC50: mark the lower of 1 and 2 . To answer, give the label that identifies your chosen option. 1
(1: 1.94 nM, 2: 9.41 nM)

The reported numbers originate from patent US9321756B2.
